Target: Voltage-gated inwardly rectifying potassium channel KCNH2 (Homo sapiens) (UniProt Q12809)
Sequence (Q12809 whole entry, looked up): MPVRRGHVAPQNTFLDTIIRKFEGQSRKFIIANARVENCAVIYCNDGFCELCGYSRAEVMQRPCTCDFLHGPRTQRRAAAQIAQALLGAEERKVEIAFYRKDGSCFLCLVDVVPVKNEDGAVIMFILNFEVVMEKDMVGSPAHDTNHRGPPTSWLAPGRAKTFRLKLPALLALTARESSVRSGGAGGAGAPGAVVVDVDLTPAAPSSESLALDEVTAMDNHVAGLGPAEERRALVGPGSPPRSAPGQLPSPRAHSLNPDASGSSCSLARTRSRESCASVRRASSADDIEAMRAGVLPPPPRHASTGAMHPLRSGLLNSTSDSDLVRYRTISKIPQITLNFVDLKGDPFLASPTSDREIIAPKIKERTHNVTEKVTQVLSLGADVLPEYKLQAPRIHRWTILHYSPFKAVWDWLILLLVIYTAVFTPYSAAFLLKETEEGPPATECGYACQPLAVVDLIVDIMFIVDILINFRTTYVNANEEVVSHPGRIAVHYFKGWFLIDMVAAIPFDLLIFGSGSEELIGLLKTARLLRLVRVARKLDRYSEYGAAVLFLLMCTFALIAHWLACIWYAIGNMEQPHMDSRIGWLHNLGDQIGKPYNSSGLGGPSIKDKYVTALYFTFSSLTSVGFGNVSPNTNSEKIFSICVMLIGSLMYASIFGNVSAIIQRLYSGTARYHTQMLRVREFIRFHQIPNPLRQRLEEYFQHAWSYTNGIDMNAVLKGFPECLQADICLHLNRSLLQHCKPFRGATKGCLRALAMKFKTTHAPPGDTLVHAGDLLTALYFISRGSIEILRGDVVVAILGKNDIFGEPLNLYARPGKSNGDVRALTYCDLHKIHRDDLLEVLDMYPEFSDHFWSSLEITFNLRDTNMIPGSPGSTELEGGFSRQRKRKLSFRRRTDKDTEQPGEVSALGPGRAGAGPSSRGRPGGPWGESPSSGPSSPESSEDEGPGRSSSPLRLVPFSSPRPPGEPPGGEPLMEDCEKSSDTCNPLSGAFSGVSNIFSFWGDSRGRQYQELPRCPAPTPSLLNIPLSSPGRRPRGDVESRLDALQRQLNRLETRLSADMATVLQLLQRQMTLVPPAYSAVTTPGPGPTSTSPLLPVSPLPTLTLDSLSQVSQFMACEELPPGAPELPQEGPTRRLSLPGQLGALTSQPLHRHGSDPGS
Test: qHTS Assay for Small Molecule Inhibitors of the Human hERG Channel Activity (AID 588834);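 note: lower thallium flux fluorescence means stronger hERG block; nearly all actives have a fitted effect of over 50% in size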
Details: U2OS BacMam hERG, FluxOR thallium flux fluorescence; series mostly up to 92.2 µM
Records with an inconclusive call do not appear. The source made the active and inactive calls. Calls come from the whole dose curve; as a rule, active = well fitted inhibition curve with a large enough effect; inconclusive = small, poorly fitted or top-dose-only effect; inactive = flat fitted curve, though single readings scatter.
// one of 1 for active, -1 for inactive, no free text

- NCC#Cc1ccccc1: -1
- O=C1C(Cl)=C(Cl)C(=O)C(Cl)=C1Cl: 1
- Cc1ccc(O)c(C)c1: -1
- CCOc1ccc(N)cc1: -1
- Cc1cccc(C#N)c1: -1

Prompt line: # fetch the recorded call for `O=NN(c1ccccc1)c1ccccc1` here
Response line: -1

Prompt line: # fetch the recorded call for `CC(Cl)Cl` here
Response line: -1

Prompt line: # fetch the recorded call for `C=C(Cl)Cl` here
Response line: -1

Prompt line: # fetch the recorded call for `CCc1cccc(CC)c1N(COC)C(=O)CCl` here
Response line: -1

Prompt line: # fetch the recorded call for OCC(Br)CBr (stereo unspecified) here
Response line: -1

Prompt line: # fetch the recorded call for `C[C@@H]1O[C@@H](O[C@H]2C[C@@H](O)[C@]3(CO)[C@H]4[C@H](O)C[C@]5(C)[C@@H]([C@@H]6COC(=O)C6)CC[C@]5(O)[C@@H]4CC[C@]3(O)C2)[C@H](O)[C@H](O)[C@H]1O` here
Response line: -1

* * *

Assay: qHTS drug screen for cell cycle checkpoint inhibitors in PARPi-resistant BRCA-mutant ovarian cancer cell lines. (AID 1963452)
Conditions: PEO1/OlaR viability, CellTiter-Glo luminescence, 96 h; measured here: PEO4 Z-AUC; stronger effect = lower value
value-kind: Z-AUC
Field format: numeric only.

- O=C(O)C1=CCCN(CCOC(c2ccc(C(F)(F)F)cc2)c2ccc(C(F)(F)F)cc2)C1: -0.457
- C[C@H]1[C@H](O)[C@@H](C)/C=C/C=C/CC/C=C/C=C/C=C/C=C/[C@H](O[C@@H]2O[C@H](C)[C@@H](O)[C@H](N)[C@@H]2O)C[C@@H]2O[C@](O)(C[C@@H](O)[C@H](O)CC[C@@H](O)C[C@@H](O)C[C@@H](O)CC(=O)O[C@H]1C)C[C@H](O)[C@H]2C(=O)O: 1.2
- COC[C@H]1OC(=O)c2coc3c2[C@@]1(C)C1=C(C3=O)[C@@H]2CC[C@H](O)[C@@]2(C)C[C@H]1OC(C)=O: 0.779
- CC(C)(O)/C=C\C(=O)[C@](C)(O)[C@H]1[C@H](O)C[C@]2(C)[C@@H]3CC=C4[C@@H](C=C(O)C(=O)C4(C)C)[C@]3(C)C(=O)C[C@@]12C: -2.46
- COc1cc(C)[nH]c(=O)c1CNC(=O)c1c(C)n([C@H](C)C2CCN(CC(F)(F)F)CC2)c2ccccc12: 0.343
- CC(C)[C@]12O[C@H]1[C@@H]1O[C@@]13[C@@]1(C)CCC4=C(COC4=O)[C@@H]1C[C@@H]1O[C@@]13C2=O: -1.17
- Cn1c(/C=C/CO)c(CO)c2c1C(=O)C=C(N1CC1)C2=O: -0.899
- C=C(C)[C@@H]1CCC(C)=C[C@H]1c1c(O)cc(CCCCC)cc1O: 0.904

Could you now look at the following molecule, please?
Just so you know, measured Z-AUC for `CC1(C)C(=O)N(c2ccc(C#N)c(C(F)(F)F)c2)C(=S)N1Cc1ccc(-c2cn[nH]n2)cc1` came out at 0.68
